Tested on: HepG2
run_description: cytotoxicity call (relative viability < 0.9)
test_parameters: 10 µM
The campaign covered roughly 39,000 compounds. About 3,300 (8.5%) were called active. Many of the other results were omitted from the sample, so actives are more common in it than they were.
Possible outcomes: active, inactive

INSERT INTO assay_data (compound, classification) VALUES
  ('C[C@H]1CN([C@@H](C)CO)C(=O)c2cc(NS(=O)(=O)c3cn(C)cn3)ccc2O[C@H]1CN(C)C(=O)Nc1ccc(F)cc1', 'inactive'),
  ('C[C@@H]1CN([C@H](C)CO)C(=O)CCCn2nncc2CO[C@H]1CN(C)S(=O)(=O)c1cn(C)cn1', 'inactive'),
  ('Cc1noc(C)c1S(=O)(=O)N(C)C[C@@H]1OCCCC[C@@H](C)Oc2ccc(NS(C)(=O)=O)cc2C(=O)N([C@H](C)CO)C[C@H]1C', 'inactive'),
  ('C[C@@H]1CN([C@@H](C)CO)C(=O)c2cccc(NC(=O)c3nc4ccccc4s3)c2O[C@H]1CN(C)Cc1ccc(-c2ccccc2)cc1', 'inactive'),
  ('CNC[C@@H]1OCCCC[C@H](C)Oc2ccc(NS(=O)(=O)c3cn(C)cn3)cc2C(=O)N([C@@H](C)CO)C[C@@H]1C', 'inactive'),
  ('CCC(=O)OC1C2CC3=C4CC(=O)OC(c5ccoc5)C4(C)CCC3C(C)(C2=O)C(CC(=O)OC)C1(C)C (stereo not given)', 'inactive'),
  ('CC(C)N1C[C@H](C)[C@@H](CN(C)Cc2ccc(Oc3ccccc3)cc2)Oc2c(NC(=O)c3ccncc3)cccc2C1=O', 'inactive'),
  ('[O-][NH2+]N(CCO)CCO', 'inactive'),
  ('CCS(=O)(=O)Nc1ccc2c(c1)C(=O)N(C)[C@@H]1CC[C@H](CC(=O)N[C@@H]3CCN(Cc4ccccc4)C3)O[C@H]1CO2', 'inactive'),
  ('C[C@H]1CN([C@@H](C)CO)C(=O)Cc2cc(NC(=O)c3ccncc3)ccc2O[C@@H]1CN(C)Cc1ccc(-c2ccccc2)cc1', 'inactive'),
  ('NC(Cc1cc(I)c(Oc2ccc(O)c(I)c2)c(I)c1)C(=O)[O-].[Na+] [LIOTHYRONINE (L- isomer) SODIUM ]', 'active'),
  ('CN(Cc1cc(Br)cc(Br)c1N)C1CCCCC1.Cl', 'inactive'),
  ('NC(Cc1cc(I)c(Oc2ccc(O)c(I)c2)c(I)c1)C(=O)O (stereo not given)', 'inactive'),
  ('C[C@@H]1CN([C@@H](C)CO)C(=O)Cc2cc(NC(=O)c3ccncc3)ccc2O[C@@H]1CN(C)Cc1ccc(-c2ccccc2)cc1', 'inactive'),
  ('COc1cccc(-c2cn(CC[C@H]3CC[C@@H](NC(=O)CN(C)C)[C@H](CO)O3)nn2)c1', 'inactive'),
  ('Cc1[nH]c(=O)[nH]c(=O)c1S(=O)(=O)N1CCC(C(=O)N[C@H](C)c2ccccc2)CC1', 'inactive'),
  ('C[C@H]1CN([C@@H](C)CO)C(=O)c2ccccc2-c2ccccc2CO[C@H]1CN(C)C(=O)Nc1cccc(F)c1', 'inactive'),
  ('COc1ccc(S(=O)(=O)Nc2ccc3c(c2)CC(=O)N([C@H](C)CO)C[C@H](C)[C@H](CN(C)S(=O)(=O)c2ccc(OC)cc2)O3)cc1', 'inactive'),
  ('C[C@H](CO)N1C[C@H](C)[C@@H](CN(C)C(=O)CN2CCOCC2)Oc2ncc(-c3cncnc3)cc2C1=O', 'inactive'),
  ('C[C@@H]1CN([C@H](C)CO)C(=O)Cc2cc(NC(=O)c3ccncc3)ccc2O[C@H]1CN(C)Cc1ccc(-c2ccccc2)cc1', 'inactive'),
  ('CO[C@H]1/C=C\O[C@@]2(C)Oc3c(C)c(O)c4c(c3C2=O)[C@]2(C=C(NC(=O)/C(C)=C\C=C/[C@@H](C)[C@@H](O)[C@@H](C)[C@@H](O)[C@@H](C)[C@@H](OC(C)=O)[C@@H]1C)C4=O)OCC(=O)O2', 'inactive'),
  ('COCC(=O)N1[C@@H]2c3ccc(C4=CCCCC4)c(=O)n3C[C@@H]2[C@@H](CO)[C@@H]1C(=O)N1CCOCC1', 'inactive'),
  ('C[C@@H]1CN([C@@H](C)CO)C(=O)c2cc(NC(=O)CCN3CCOCC3)ccc2O[C@@H]1CN(C)S(=O)(=O)c1ccccc1', 'inactive'),
  ('C[C@@H]1CN([C@H](C)CO)C(=O)Cc2cc(NC(=O)c3ccncc3)ccc2O[C@@H]1CN(C)Cc1ccc(-c2ccccc2)cc1', 'active'),
  ('CC(C)N1C[C@H](C)[C@@H](CN(C)Cc2ccc(Oc3ccccc3)cc2)Oc2c(NC(=O)c3cccnc3)cccc2C1=O', 'inactive'),
  ('C[C@H](CO)N1C[C@H](C)[C@@H](CN(C)Cc2ccc(-c3ccccc3)cc2)Oc2ccc(NC(=O)c3ccncc3)cc2CC1=O', 'inactive'),
  ('C[C@H](CO)N1C[C@H](C)[C@H](CN(C)Cc2ccc(-c3ccccc3)cc2)Oc2ccc(NC(=O)c3ccncc3)cc2CC1=O', 'inactive'),
  ('C[C@@H]1CCCCO[C@H](CN(C)Cc2ccccc2)[C@H](C)CN([C@H](C)CO)C(=O)c2cc(NC(=O)c3ccccc3)ccc2O1', 'inactive'),
  ('C[C@H]1CN([C@@H](C)CO)C(=O)c2cccc(NS(=O)(=O)c3cn(C)cn3)c2O[C@H]1CN(C)C(=O)Nc1ccc(F)cc1', 'inactive'),
  ('N[C@@H](Cc1cc(I)c(Oc2ccc(O)c(I)c2)c(I)c1)C(=O)O', 'inactive');
